Consider the following compounds and their measured Ki readings.
Target sequence: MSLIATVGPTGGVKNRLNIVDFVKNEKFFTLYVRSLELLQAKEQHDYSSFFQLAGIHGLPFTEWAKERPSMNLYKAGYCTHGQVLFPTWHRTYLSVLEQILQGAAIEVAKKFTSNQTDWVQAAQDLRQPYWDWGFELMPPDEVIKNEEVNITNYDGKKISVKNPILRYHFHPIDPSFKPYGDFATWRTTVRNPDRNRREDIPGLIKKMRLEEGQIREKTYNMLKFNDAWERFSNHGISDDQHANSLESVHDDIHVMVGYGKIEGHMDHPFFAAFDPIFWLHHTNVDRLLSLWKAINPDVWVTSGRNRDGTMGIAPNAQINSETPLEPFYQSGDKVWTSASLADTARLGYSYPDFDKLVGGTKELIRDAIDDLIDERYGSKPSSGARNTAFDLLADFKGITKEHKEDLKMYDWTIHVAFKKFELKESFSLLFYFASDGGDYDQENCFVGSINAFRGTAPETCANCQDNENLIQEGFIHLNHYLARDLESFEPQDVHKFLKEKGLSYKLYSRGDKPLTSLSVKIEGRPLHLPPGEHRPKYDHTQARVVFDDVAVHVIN
Respond with the bare value in µM.

Solved cases (3 shown):
INSERT INTO measurements (compound, measure, numeric_value) VALUES
  ('COc1cc([C@@H]2[C@H]3CO[C@@]4(O)C(=O)[C@@H]2C=C([C@H]2Oc5cc(O)cc(O)c5C(=O)[C@@H]2O)[C@@H]34)ccc1O [SILIDIANIN]', 'Ki', 2.1),
  ('COc1cc([C@@H]2Oc3ccc([C@H]4Oc5cc(O)cc(O)c5C(=O)[C@@H]4O)cc3O[C@H]2CO)ccc1O [ISOSILYBIN B]', 'Ki', 4.3),
  ('COc1cc([C@H]2Oc3c(O)cc([C@H]4Oc5cc(O)cc(O)c5C(=O)[C@@H]4O)cc3[C@@H]2CO)ccc1O [SILICRISTIN B]', 'Ki', 2.8);

As a next step, examine the compound that follows.
Ask: What does the data say about its Ki? Entry: "COc1cc([C@@H]2Oc3c(O)cc(-c4oc5cc(O)cc(O)c5c(=O)c4O)cc3[C@H]2CO)ccc1O"
Result: 4.6
